All figures here come from paper PMC6321168.

run description: Urinary excretion study in rats after oral NS, SF or CNS (LC–MS/MS)
Assay type: in vivo
particulars: rat urine, oral CNS 110 mg/kg, 12 h
Entries annotated with measured Accumulative excretion amount
Quick note: give the figure in µg, leave out the unit.

For orientation, consider the following solved cases.
CC(C)=CCC[C@](C)(O[C@@H]1O[C@H](CO)[C@@H](O)[C@H](O)[C@H]1O)[C@H]1CC[C@]2(C)[C@@H]1[C@H](O)C[C@@H]1[C@@]3(C)CC[C@H](O)C(C)(C)[C@@H]3[C@@H](O[C@@H]3O[C@H](CO)[C@@H](O)[C@H](O)[C@H]3O)C[C@]12C [ginsenoside Rg1]: 5.430
CC(C)=CCC[C@](C)(O[C@@H]1O[C@H](CO)[C@@H](O)[C@H](O)[C@H]1O)[C@H]1CC[C@]2(C)[C@@H]1[C@H](O)C[C@@H]1[C@@]3(C)CC[C@H](O[C@@H]4O[C@H](CO)[C@@H](O)[C@H](O)[C@H]4O[C@@H]4O[C@H](CO)[C@@H](O)[C@H](O)[C@H]4O)C(C)(C)[C@@H]3CC[C@]12C [ginsenoside Rd]: 0.045
CC(C)=CCC[C@](C)(O[C@@H]1O[C@H](CO)[C@@H](O)[C@H](O)[C@H]1O)[C@H]1CC[C@]2(C)[C@@H]1[C@H](O)C[C@@H]1[C@@]3(C)CC[C@H](O)C(C)(C)[C@@H]3[C@@H](O[C@@H]3O[C@H](CO)[C@@H](O)[C@H](O)[C@H]3O[C@@H]3O[C@@H](C)[C@H](O)[C@@H](O)[C@H]3O)C[C@]12C [ginsenoside Re]: 0.324

Any idea what Accumulative excretion amount was measured for CC(C)=CCC[C@](C)(O[C@@H]1O[C@H](CO[C@@H]2O[C@H](CO)[C@@H](O)[C@H](O)[C@H]2O)[C@@H](O)[C@H](O)[C@H]1O)[C@H]1CC[C@]2(C)[C@@H]1[C@H](O)C[C@@H]1[C@@]3(C)CC[C@H](O[C@@H]4O[C@H](CO)[C@@H](O)[C@H](O)[C@H]4O[C@@H]4O[C@H](CO)[C@@H](O)[C@H](O)[C@H]4O)C(C)(C)[C@@H]3CC[C@]12C [ginsenoside Rb1] ?
0.472

====

run description: Urinary excretion study in rats after oral NS, SF or CNS (LC–MS/MS)
Format: in vivo
particulars: rat urine, oral CNS 110 mg/kg, 8 h
metric: Accumulative excretion percentage (%)
Quick note: give the figure in %, leave out the unit.

For orientation, consider the following solved cases.
CC(C)=CCC[C@](C)(O[C@@H]1O[C@H](CO)[C@@H](O)[C@H](O)[C@H]1O)[C@H]1CC[C@]2(C)[C@@H]1[C@H](O)C[C@@H]1[C@@]3(C)CC[C@H](O)C(C)(C)[C@@H]3[C@@H](O[C@@H]3O[C@H](CO)[C@@H](O)[C@H](O)[C@H]3O[C@@H]3O[C@@H](C)[C@H](O)[C@@H](O)[C@H]3O)C[C@]12C [ginsenoside Re]: 0.061
CC(C)=CCC[C@](C)(O[C@@H]1O[C@H](CO[C@@H]2O[C@H](CO)[C@@H](O)[C@H](O)[C@H]2O)[C@@H](O)[C@H](O)[C@H]1O)[C@H]1CC[C@]2(C)[C@@H]1[C@H](O)C[C@@H]1[C@@]3(C)CC[C@H](O[C@@H]4O[C@H](CO)[C@@H](O)[C@H](O)[C@H]4O[C@@H]4O[C@H](CO)[C@@H](O)[C@H](O)[C@H]4O)C(C)(C)[C@@H]3CC[C@]12C [ginsenoside Rb1]: 0.009

Any idea what Accumulative excretion percentage was measured for CC(C)=CCC[C@](C)(O[C@@H]1O[C@H](CO)[C@@H](O)[C@H](O)[C@H]1O)[C@H]1CC[C@]2(C)[C@@H]1[C@H](O)C[C@@H]1[C@@]3(C)CC[C@H](O[C@@H]4O[C@H](CO)[C@@H](O)[C@H](O)[C@H]4O[C@@H]4O[C@H](CO)[C@@H](O)[C@H](O)[C@H]4O)C(C)(C)[C@@H]3CC[C@]12C [ginsenoside Rd] ?
0.004
